Biological target: Tau40 P301L protein (human)
Assay: cell-based or functional assay
Square brackets hold non-standard residues; d marks the D form. Ends that are not written are not given here.
Listed below: IC50, Tau40 assay (ThT) values for each entry.

BINDER	IC50, Tau40 assay (ThT) (µM)
[dK][dV][dR][dW][dW][dW][dR][dL] [kvrwwwrl]	3.84
[dL][dE][dI][dR][dI][dH][dY][dH] [leirihyh]	4.07
[dW][dF][dL][dR][dI][dH][dW] [wflrihw]	8.71
[dI][dL][dK][dI][dV][dW] [ilkivw]	9.32
